Catalogue of molecules with associated GI50
Tested on: HOP-92
Assay: NCI tumour cell line growth inhibition, 48 h
Active and inactive are the calls of the source. Rule as the data show it: active = GI50 up to about 1.1 µM and inactive = higher.

Some entries whose results are on file:
- molecule: "CC1SCc2nc3ccccc3n21 (configuration not stated)"
  endpoint-value: "> 100 µM (inactive)"
- molecule: "CCCCCCCCCCCCCCCCOCC(COP(=O)([O-])OCC[N+](C)(C)C)OCCCCCCCCCCCCCCCC (configuration not stated)"
  endpoint-value: "> 100 µM (inactive)"
- molecule: "NC(=O)c1ncn(C2OC(CO)C(O)C2O)c1NC=O (configuration not stated)"
  endpoint-value: "> 100 µM (inactive)"
- molecule: "COc1ccc(/C(CC2OC(=O)c3ccccc32)=N\\NC(N)=O)cc1 (configuration not stated)"
  endpoint-value: "> 100 µM (inactive)"
- molecule: "Cn1c(=O)ccc2c(=O)c3ccccc3oc21"
  endpoint-value: "67.6 µM (inactive)"
- molecule: "CC12CC3C(CC1SCC(=O)O2)C3(C)C (configuration not stated)"
  endpoint-value: "> 100 µM (inactive)"
- molecule: "O=C1C(Cl)C(c2cccc(Br)c2)N1c1c(O)c(Cl)cc(Br)c1Cl (configuration not stated)"
  endpoint-value: "6.93 µM (inactive)"
- molecule: "CC(C)(C)OC(=O)N(O)[C@@H]1CC[C@H](n2cnc3c(N)ncnc32)C1"
  endpoint-value: "> 100 µM (inactive)"

The molecule identified as COc1ccc2c(c1)CC[C@@H]1[C@@H]2CC[C@]2(C)C(=O)/C(=C/c3ccncc3)C[C@@H]12 registered its GI50 at 27.9 µM (inactive)

The molecule identified as CS/C(=N/C(=O)c1ccccc1)SCCS/C(=N\C(=O)c1ccccc1)SC registered its GI50 at 20 µM (inactive)

The molecule identified as c1ccc(CNCCN2CCNCC2)nc1 registered its GI50 at > 100 µM (inactive)

The molecule identified as COC(=O)C1=C(c2cc(OC)c(OC)c(OC)c2)OC(c2ccc3c(c2)OCO3)C1 (configuration not stated) registered its GI50 at 24.8 µM (inactive)

The molecule identified as CC(C)NC(=O)OCc1c(COC(=O)NC(C)C)n(C)c2c1ccc1ccccc12 registered its GI50 at 1.16 µM (inactive)

The molecule identified as C/C=C(/C)C(=O)O[C@H]1C[C@@H]2[C@@H](O)c3occ(C)c3C[C@]2(C)[C@@H](C)C1 registered its GI50 at 17.4 µM (inactive)

The molecule identified as CC1(C)C(=O)/C=C\C(=O)C(C)(C)C2=CC=C(O2)C(C)(C)C(=O)C(Br)C(Br)C(=O)C(C)(C)C2=CC=C1O2 (configuration not stated) registered its GI50 at > 21.5 µM (inactive)

The molecule identified as CC(CC(=O)N1C(=O)C(C)(C)[C@@H](O)[C@H]1CC(C)C(Cl)(Cl)Cl)C(Cl)(Cl)Cl (some centres not stated) registered its GI50 at > 100 µM (inactive)

----------
Test system: RXF 393
Assay: NCI tumour cell line growth inhibition, 48 h
The source made the active and inactive calls. Cut-off read from the data, not from the text of the source: active = GI50 up to about 1.1 µM and inactive = higher.
Your response should consist of one outcome taken from YES = active, NO = inactive

- compound: "CSC(=N/N=C(\\C)c1ccc(S(=O)(=O)N(C)c2ccccc2)cc1)SC"
  target-desc: "RXF 393"
  assigned-category: "NO"

[Q] // outcome(item) with item = CC[C@]1(c2ccc3c(c2)OCO3)C=[N+]([O-])O[C@H](OC2CCCC2(c2ccccc2)c2ccccc2)[C@@H]1OC(C)=O (some centres undefined)
[A] NO

[Q] // outcome(item) with item = CC(C)NC(=O)OCc1c(COC(=O)NC(C)C)n(C)c2c1ccc1ccccc12
[A] NO

[Q] // outcome(item) with item = CC(C)(C)c1ccc(O)c(C(O)c2ccccn2)c1 (centres undefined)
[A] NO

[Q] // outcome(item) with item = O=S(=O)(Cc1cnc(O)nc1O)Cc1cnc(O)nc1O
[A] NO

[Q] // outcome(item) with item = Nc1nc(N)c2c(CCc3ccc(C(=O)N[C@@H](CCC(=O)O)C(=O)O)cc3)ccnc2n1
[A] YES

[Q] // outcome(item) with item = CC(=O)O[C@H]1CCC2[C@@H]3CCC4C(=O)c5oncc5C[C@]4(C)C3CC[C@@]21C (some centres undefined)
[A] NO

[Q] // outcome(item) with item = O=C(/C=C/c1csc(-c2ccccc2)n1)NCc1ccc(C(=O)NCCc2ccccc2)cc1
[A] NO

[Q] // outcome(item) with item = COc1cc2c(cc1OC)C1CN3C(=O)CCC3C(O)C1c1cc(OC)c(OC)cc1-2 (centres undefined)
[A] NO

----------
System: RXF 393
Assay: NCI tumour cell line growth inhibition, 48 h
The source made the active and inactive calls. Cut-off read from the data, not from the text of the source: active = GI50 up to about 1.1 µM and inactive = higher.
readout: GI50

Some entries whose results are on file:
- compound: "CCO/N=C(/CC)c1ccc(Br)s1"
  endpoint-value: "> 100 µM (inactive)"
- compound: "CC1(CCOCc2ccccc2)NC(=O)NC1=O (stereo unspecified)"
  endpoint-value: "> 100 µM (inactive)"
- compound: "O=[N+]([O-])c1cc(Cl)ccc1S(=O)(=O)c1ccccc1"
  endpoint-value: "54.6 µM (inactive)"

The compound identified as CCCCCCCCCCCCOP(=O)(O)OP(=O)(O)OCC1OC(n2ccc(N)nc2=O)CC1O (stereo unspecified) registered its GI50 at > 100 µM (inactive)

The compound identified as Cc1sc2ncnc(NCCc3ccccc3)c2c1C registered its GI50 at 12.3 µM (inactive)

The compound identified as CC1CCCc2c(CC3CC(=O)NC(=O)C3)nc(N)nc21 (stereo unspecified) registered its GI50 at > 100 µM (inactive)

----------
Catalogue of compounds with associated GI50
Tested on: CCRF-CEM
Test: NCI tumour cell line growth inhibition, 48 h
Activity calls are given as the source filed them. Cut-off read from the data, not from the text of the source: active = GI50 up to about 1.1 µM and inactive = higher.

Some entries whose results are on file:
- compound: "CCCC(=O)OCC(O)CO (stereo unspecified)"
  target-desc: "CCRF-CEM"
  GI50: "4500 µM (inactive)"
- compound: "CN(C)CCOC(=O)c1ccc(N)cc1"
  target-desc: "CCRF-CEM"
  GI50: "20.7 µM (inactive)"
- compound: "O=C1c2ccccc2C2(O)c3cc4ccccc4cc3OC12O (stereo unspecified)"
  target-desc: "CCRF-CEM"
  GI50: "47.2 µM (inactive)"
- compound: "CCOC(=O)Nc1ccc(S(=O)(=O)I)cc1.CCOC(=O)Nc1ccc(S(=O)(=O)I)cc1.CNC(=O)N=O.NC(=O)OCCCl"
  target-desc: "CCRF-CEM"
  GI50: "74.8 µM (inactive)"
- compound: "Cc1ccc(S(=O)(=O)NNC2Oc3cc4c(cc3C(c3ccccc3O)C2C)OCO4)cc1 (stereo unspecified)"
  target-desc: "CCRF-CEM"
  GI50: "10.2 µM (inactive)"
- compound: "O=C1CC2(CCC(O)(c3ccco3)C(C(=O)c3ccco3)C2)C(=O)c2ccccc2N1 (stereo unspecified)"
  target-desc: "CCRF-CEM"
  GI50: "> 10 µM (inactive)"

The compound identified as C#CCOCn1cnc2c(Cl)ncnc21 registered its GI50 at > 100 µM (inactive)

----------
Tested on: HCT-116
Test: NCI tumour cell line growth inhibition, 48 h
Calls of active or inactive are those of the source. No stated cut-off is given here; in the data, active = GI50 up to about 1.1 µM and inactive = higher.
Your response should consist of one outcome taken from true (active), false (inactive)

- molecule: "Nc1nc(Cl)cc(NCC2(O)CCCC2)n1"
  assigned-category: "false"
- molecule: "CN(c1ccccc1)c1c(-c2ccccc2)c(=O)oc2c1ccc1occc12"
  assigned-category: "false"
- molecule: "CC1(CCc2ccccc2)CC1(Br)Br (stereo not drawn)"
  assigned-category: "false"
- molecule: "CC1=[N+](C)CCN1C"
  assigned-category: "false"
- molecule: "COC(=O)C1=C(SC)SC2(C(=O)OC)C3C=C(C)C4C(N13)C42C(=O)OC (stereo not drawn)"
  assigned-category: "false"
- molecule: "Oc1c(Cl)ccc2cccnc12"
  assigned-category: "false"
- molecule: "COc1ccc(N2C(=O)CSC2c2cc3cc(Br)ccc3nc2Cl)cc1 (stereo not drawn)"
  assigned-category: "false"
- molecule: "O=C1C(Cl)C(c2cccc(Br)c2)N1c1c(O)c(Cl)cc(Br)c1Cl (stereo not drawn)"
  assigned-category: "false"
- molecule: "CC(=O)Nc1ccc(C2=N/C(=C\\c3ccc(Cl)c(Cl)c3)C(=O)O2)cc1"
  assigned-category: "false"
- molecule: "Cc1nn(C(=O)Cc2ccccc2)c2c1C(c1ccc(N(C)C)cc1)SC(=N)N2 (stereo not drawn)"
  assigned-category: "false"

[Q] // outcome(item) with item = O=C1C(=O)c2cc([N+](=O)[O-])ccc2-c2ccc([N+](=O)[O-])cc21
[A] true

[Q] // outcome(item) with item = O=c1sc2c(s1)-c1sc(=O)sc1SS2
[A] false

[Q] // outcome(item) with item = Nc1nnnn1CCO
[A] false

[Q] // outcome(item) with item = O=C(/C(=N\Nc1ccc([N+](=O)[O-])cc1[N+](=O)[O-])NC12CC3CC(CC(C3)C1)C2)C(Br)C(=O)c1ccccc1 (stereo not drawn)
[A] false

[Q] // outcome(item) with item = Nc1c(C(=O)Nc2ccc(C3=NCCN3)cc2)cccc1C(=O)Nc1ccc(C2=NCCN2)cc1
[A] false

[Q] // outcome(item) with item = COc1ccc(C(=O)O/N=C2/CCC/C2=C\c2ccccc2)cc1
[A] false

[Q] // outcome(item) with item = Cc1nccc2c1cnc1ccnn12
[A] false

[Q] // outcome(item) with item = Cn1c(=O)ccc2c(=O)c3ccccc3oc21
[A] false

[Q] // outcome(item) with item = C/C(C=O)=C1\C(O)C[C@]1(C)C1CC(C)(C)CC1O (stereo partly drawn)
[A] false

[Q] // outcome(item) with item = COc1cc(O)c2c(c1)C(=O)c1cc3c(c(O)c1C2=O)C(OC1OC(C)C(OC)C(O)C1OC)C(OC)C(C)(O)C3=O (stereo not drawn)
[A] false

[Q] // outcome(item) with item = COc1ccc(/C(CC2OC(=O)c3ccccc32)=N\NC(N)=O)cc1 (stereo not drawn)
[A] false

[Q] // outcome(item) with item = O=c1[nH]c2nc3ccccc3c(=O)n2/c1=C/c1ccco1
[A] false

[Q] // outcome(item) with item = O=C(CNC(c1ccccc1)(c1ccccc1)c1ccccc1)NC1CCCCC1NC(=O)CNC(c1ccccc1)(c1ccccc1)c1ccccc1 (stereo not drawn)
[A] false
